Reference source for all entries: the supplement of paper PMC4862054

# Tested on: CAL-85-1
# experimental_protocol: normalised response (% of control), CellTiter-Glo; higher = more viable cells (100 = DMSO, 0 = benzethonium chloride kill control)
# condition_set: incubation time: 72 h
readout_label: normalised response (%)
Respond with the bare value in %.

Qu. // normalised response lookup, key: Cc1ccc(-c2cc(C(F)(F)F)nn2-c2ccc(S(N)(=O)=O)cc2)cc1 [Celecoxib] (10000 nM)
Ans. 102

Qu. Moving on to the next compound: O=C(Cc1ccc(-c2ccc(OCCN3CCOCC3)cc2)cn1)NCc1ccccc1 [KX2-391] (10000 nM)
Ans. 56.5

Qu. Moving on to the next compound: CCCS(=O)(=O)Nc1ccc(F)c(C(=O)c2c[nH]c3ncc(-c4ccc(Cl)cc4)cc23)c1F [Vemurafenib] (10000 nM)
Ans. 85.1

Qu. Moving on to the next compound: Oc1ncc(N(CCCl)CCCl)c(O)n1 [Uracil mustard] (10000 nM)
Ans. 103

Qu. Moving on to the next compound: CC(=O)Nc1cccc(-n2c(=O)n(C3CC3)c(=O)c3c(Nc4ccc(I)cc4F)n(C)c(=O)c(C)c32)c1 [Trametinib] (250 nM)
Ans. 46.2

Qu. Moving on to the next compound: CC1=C(/C=C/C(C)=C/C=C/C(C)=C/C(=O)O)C(C)(C)CCC1 [Tretinoin] (10000 nM)
Ans. 56.5

Qu. Moving on to the next compound: N#Cc1ccc(C(c2ccc(C#N)cc2)n2cncn2)cc1 [Letrozole] (10000 nM)
Ans. 97.8

Qu. Moving on to the next compound: Cc1cnc(NC(=O)Nc2cc(Br)c(C)cc2OC[C@@H]2CNCCO2)cn1 [Rabusertib] (1000 nM)
Ans. 87.8

Qu. Moving on to the next compound: Nc1nc2[nH]cc(CCc3ccc(C(=O)N[C@@H](CCC(=O)O)C(=O)O)cc3)c2c(=O)[nH]1 [Pemetrexed] (10000 nM)
Ans. 54.2
